Origin of the recorded values: ChEMBL document CHEMBL3433997

target: Hexose transporter 1 (Plasmodium falciparum) (UniProt O97467); experiment: ST_JUDE_LEISH: Cytotoxicity at 2uM final concentration against transgenic Leishmania Mexicana promastigotes LmPfHT that are glucose transport deficient and complemented with the Plasmodium falciparum hexose transporter. Activity is measured by DNA content using SYBR green in vitro; type: functional
observed property: inhibition (%)
Answers are plain numbers, in %.

CN1CCN(c2ccc(CNc3ccc4ncc(-c5ccc(OC(F)(F)F)cc5)n4n3)cc2)CC1
-1.23

For every listed record, write down its inhibition.
1. COc1ccc(N2CCN(CCCCNC(=O)c3ccc(NC(=O)c4ccc(Cl)c(Cl)c4)cc3)CC2)c(OC)c1
2. COc1cc2nc(N3CCC(CCCC4CCNCC4)CC3)nc(NCc3ccccn3)c2cc1OC
3. COc1ccc(Nc2nc(NCc3ccc(-n4ccnc4)cc3)cc(-c3ccc(OC)cc3)n2)cc1
4. O=C(Cc1c[nH]cn1)Nc1ccc(-c2ccc(-c3nc4ccccc4[nH]3)s2)cc1

Result:
1: 1.72; 2: 68.6; 3: 2.46; 4: 5.17

* * *

I'd be grateful if you could share measured inhibition for these entries.
molecular target: Hexose transporter 1 (Plasmodium falciparum) (UniProt O97467); test: ST_JUDE_LEISH: Cytotoxicity at 2uM final concentration against transgenic Leishmania Mexicana promastigotes LmPfHT that are glucose transport deficient and complemented with the Plasmodium falciparum hexose transporter. Activity is measured by DNA content using SYBR green in vitro; assay type: functional
Answers are plain numbers, in %.

Some compounds with known inhibition results, for comparison:
CC(C)(C)c1ccc(CNC(=O)c2ccc(-c3nc4ccc(Cl)cc4[nH]3)cc2)cc1
1.77
Cc1cc(N[C@@H](Cc2ccccc2)C(=O)NC2CCCC2)nc(NCCc2ccc(F)cc2)n1
5.18

For every listed record, write down its inhibition.
1. COc1ccc(CNC2Cc3ccccc3C2)cc1-c1ccc(S(=O)(=O)NCCc2ccccn2)s1
2. NC1=NC(c2ccccc2)(c2ccccc2)C(=O)N1CCCCc1ccccn1
3. CN1CCN(c2ccc3[nH]c(-c4ccc(Cc5cc(Cl)ccc5OCc5ccccc5)o4)nc3c2)CC1
4. COC(=O)Cn1c2ccccc2c2c(N)c(C(=O)OC)c(C)nc21
5. CC(C)C(=O)n1ncc2c3c(N)nc(N)nc3ccc21
6. CCC(CC)n1cc2c(ccc3nc(N)nc(N)c32)n1
7. CN1CCCc2cc(NC(=O)c3cc(-c4ccc(Cl)cc4)cs3)ccc2C1

Result:
1: 0.03; 2: -0.95; 3: 2.32; 4: 0.97; 5: -1.08; 6: -0.91; 7: 0.77

Request: So what's the measured inhibition for this one? N=c1c2c(n(Cc3cccc(Cl)c3)c3c1CCC3)CCCC2
Result: 49.2

* * *

I'd be grateful if you could share measured inhibition for these entries.
target: Glucose transporter (Leishmania mexicana) (UniProt O61059); experiment: ST_JUDE_LEISH: Cytotoxicity at 2uM final concentration against transgenic Leishmania Mexicana promastigotes LmGT2 that are glucose transport deficient and complemented with the L. Mexicana glucose transporter 2. Activity is measured by DNA content using SYBR green in vitro; format: functional

Some molecules with known inhibition results, for comparison:
O=C(/C=C/c1ccc(Cl)c(Cl)c1)N1CCC(NCc2ccc3[nH]ccc3c2)CC1
0.76%
Cc1cc(C(=O)OCC(=O)Nc2c(C)n(C)n(-c3ccccc3)c2=O)c(C)n1-c1ccc(F)cc1
-0.97%
CCOC(=O)c1ccc(N=C2SC(=Cc3cc(Br)ccc3O)C(=O)N2C)cc1
3.81%
N#CN1CC[C@@H](NS(=O)(=O)Cc2ccc(Cl)c(Cl)c2)C1
4.15%
COc1cc(Cc2cnc(N)nc2N)c2c(c1OC)OC(C)(C)C=C2
4.87%

For every listed record, write down its inhibition.
1. CN1CCC(N(C)C(=O)C=Cc2cn(-c3ccccc3)nc2-c2cc3ccccc3o2)CC1
2. Cc1[nH]c(C)c([N+](=O)[O-])c(=O)c1-c1ccc(Oc2ccc(OC(F)(F)F)cc2)cc1

Result:
1. -0.25%
2. 1.41%

For every listed record, write down its inhibition.
1. CC1(C)NC(N)=NC(=N)N1OCc1nc(N)nc(Nc2ccccc2)n1
2. CC(C)CC1c2[nH]c3ccccc3c2CCN1C(=O)CCc1ccccc1 (stereo not given)
3. COc1ccc(-c2cc(C(=O)N3CCc4ccccc43)c3ccccc3n2)cc1OC

Result:
5.9%
4.41%
-0.93%
